Experimental target: T1, AFP158/HLA-A*02:01 complex (human)
T1 construct: flowed as analyte in SPR
Run description: SPR, crude scFv captured, pMHC analyte;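 note: Peptide-MHC complex at several concentrations passed over captured scFv, association then buffer-driven dissociation, on- and off-rates fitted from the curves and KD estimated from them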
For each record, write down the corresponding koff.
Numbers only, in s⁻¹.

Binder	koff / s⁻¹
AS170036 VL1VH1-VHG56Y (scFv) scFv: QSALTQPRSVSGSPGQSVTISCAGTSSDVGSENYVSWYQQHPGKAPKLMIYQVNKRASGVPDRFSGSKSGNTASLTISGLQAEDEADYYCASYRSSDHNIVFGGGTKLTVLGGGGSGGGGSGGGGSEVQLVESGGGLVQPGGSLRLSCAASGFTFSSYAMSWVRQAPGKGLEWVSTINSGTYSPYYADSVKGRFTISRDNSKNTLYLQMNSLRAEDTAVYYCAKNFFDGSWFLGPPAMDYWGQGTLVTVSSHHHHHH	0.006

Next binder, koff to be filled in.
Ask: Suppose we examine the binder AS170036 VL1VH1-VHG108N (scFv) scFv: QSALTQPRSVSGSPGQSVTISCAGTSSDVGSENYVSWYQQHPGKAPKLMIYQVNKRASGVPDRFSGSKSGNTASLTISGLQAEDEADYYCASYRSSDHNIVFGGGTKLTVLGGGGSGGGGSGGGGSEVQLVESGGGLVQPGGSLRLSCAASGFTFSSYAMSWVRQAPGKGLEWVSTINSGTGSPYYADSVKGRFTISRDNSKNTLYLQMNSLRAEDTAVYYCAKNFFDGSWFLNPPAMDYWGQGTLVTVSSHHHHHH ; what koff value has been reported?
Reply: 0.045
